What pIC50 was measured for each of the following?
System: ROS cells
assay-comment: ROS cell based alkaline phosphatase bioassay
Parameters: species or system rat
experimental-context: Example 3; peptide together with OP-1 (1.33 nM); read-out: peptide concentration giving 50% inhibition of cellular responsiveness to OP-1
Procedure: In a first series of experiments, increasing concentrations of peptides F2-2 (FIG. 9A), F2-3 (FIG. 9B), Hn-2 (FIG. 9C) and Hc-2 (FIG. 9D) were added to ROS cells either alone (open bars) or in combination with 40 ng/ml soluble OP-1 (filled bars) and their effect on alkaline phosphatase activity measured. […] i. ROS Cell Based Alkaline Phosphatase Assay: OP-1 synthetic peptides that bind OP-1 receptors are further analyzed by in vitro bioassay. […]
Bridge positions count the residues as written; N and C are the ends. Ends that are not written are not given here.
# pIC50 is unitless: minus log10 of the molar concentration; print number only

May I ask what pIC50 has been recorded for F2-1: SEQ ID No. 16; covers the entire finger 2 region of OP-1, cyclized close to the knot region (CLNAISVLYFDDSSNVILKKYRNMVVRC; disulfide 1-28 (inferred); listed as Homo sapiens) ?
5.10

May I ask what pIC50 has been recorded for H-C2: SEQ ID No. 13; 7 residues (plus Cys) in the loop on the C-terminal end of the Heel helix (CCFINPETVCC; listed as Homo sapiens) ?
5.30

May I ask what pIC50 has been recorded for F1-2: SEQ ID No. 6; 15-residue finger 1 loop region peptide cyclized at the ends (CFRDLGWQDWIIAPC; cyclized; listed as Homo sapiens) ?
5.00

May I ask what pIC50 has been recorded for F1-1: SEQ ID No. 5; cyclized peptide covering the complete finger 1 region of OP-1 (CELYVSFRDLGWQDWIIAPEGYAAYC; cyclized; listed as Homo sapiens) ?
4.70
